tested_on: Cyclin-dependent kinase 7 (Homo sapiens) (UniProt P50613)
Sequence (P50613 whole entry): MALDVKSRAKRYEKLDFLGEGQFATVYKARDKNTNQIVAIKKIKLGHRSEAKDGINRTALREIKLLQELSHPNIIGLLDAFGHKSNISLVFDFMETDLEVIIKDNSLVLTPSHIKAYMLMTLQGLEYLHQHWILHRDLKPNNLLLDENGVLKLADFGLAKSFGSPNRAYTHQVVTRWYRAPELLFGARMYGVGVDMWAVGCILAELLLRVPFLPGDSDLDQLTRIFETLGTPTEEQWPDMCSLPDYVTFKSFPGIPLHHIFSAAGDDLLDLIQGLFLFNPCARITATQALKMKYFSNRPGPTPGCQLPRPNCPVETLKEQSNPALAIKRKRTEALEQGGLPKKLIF
method: Inhibition of biotinylated-THZ1 binding to CDK7 in human Jurkat cells assessed as reduction in cyclin H pull down at 1 uM preincubated for 6 hrs followed by biotinylated-THZ1 addition by Western blotting based pull-down assay
Type: cell-based
The source made the active and inactive calls. No cut-off for these calls is given here.
Respond only with the outcome that fits, drawn from active, inactive

CN(C)C/C=C/C(=O)Nc1ccc(N2CCC[C@@H](Nc3ncc(Cl)c(-c4c[nH]c5ccccc45)n3)C2)nc1	inactive

Please share the test call associated with CN(C)C/C=C/C(=O)Nc1ccc(C(=O)Nc2cccc(Nc3ncc(Cl)c(-c4c[nH]c5ccccc45)n3)c2)cc1 .
active

Please share the test call associated with CN(C)C/C=C/C(=O)Nc1ccc(O[C@@H]2CCC[C@@H](Nc3ncc(Cl)c(-c4c[nH]c5ccccc45)n3)C2)cc1 .
inactive

Please share the test call associated with C=CC(=O)Nc1ccc(N2CCC[C@@H](Nc3ncc(Cl)c(-c4c[nH]c5ccccc45)n3)C2)cc1 .
inactive
